Listed below: %Inh values for each entry.
Test system: ERK4
Construct: gene MAPK4
setup conditions: concentration: 1 μM,replicates: in singlicate; n = 1;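 also: KINOMEscan kinase panel screen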
assay endpoint: %Inh (%)

{"columns": ["compound", "assay endpoint", "measurement"],
 "data": [
  ["CCNCC(Cc1ccccc1)NC(=O)c1cc(Br)c(-c2ccnc3[nH]ccc23)s1.Cl.Cl (stereo not drawn)", "%Inh", 32],
  ["Cc1cccc(-c2nc(Nc3ccncc3)c3sccc3n2)n1", "%Inh", 26],
  ["COc1cccc(CNC(=O)NC2CCN(c3ccnc(Nc4cc(OC)c(OC)c(OC)c4)n3)C2)c1 (stereo not drawn)", "%Inh", 0],
  ["Cn1ccc2ncnc(Oc3ccc(NC(=O)Nc4cncc(C(F)(F)F)c4)c(Cl)c3)c21", "%Inh", 0],
  ["COc1cc2ncn(-c3cc(OCC4CCCCC4)c(C(N)=O)s3)c2cc1OC", "%Inh", 4],
  ["COc1ccc(Nc2nccc(N3CCC(NC(=O)c4cccc(C#N)c4)C3)n2)cc1 (stereo not drawn)", "%Inh", 0],
  ["CS(=O)c1ccc(-c2coc3ccc(-c4n[nH]c(=O)o4)cc23)cc1 (stereo not drawn)", "%Inh", 0],
  ["CCn1c(-c2nonc2N)nc2cncc(Br)c21", "%Inh", 19],
  ["O=C(Nc1ccccc1)c1cccc(Oc2ccc3nccn3n2)c1", "%Inh", 77]
]}

---

Test system: CDK5
setup conditions: concentration: 1 μM,replicates: in singlicate; n = 1
Listed below: %Inh values for each entry.
assay endpoint: %Inh (%)

{"columns": ["molecule", "measurement"],
 "data": [
  ["O=C(NCC1CC1)c1ccc(-c2cc(C(=O)NC3CC3)ccc2F)cc1 [GW810445]", 0],
  ["Cn1ccc2ncnc(Oc3ccc(NC(=O)Nc4cccc(C(F)(F)F)c4)c(Cl)c3)c21", 0],
  ["Cl.Nc1n[nH]c2cc(-c3ccccn3)ccc12 [GSK2189892]", 0]
]}

---

System: CDKL3
setup conditions: concentration: 1 μM,replicates: in singlicate; n = 1
Hi! Just check whether %Inh is below 30%. Below gives yes, equal or above gives no.

{"columns": ["compound", "classification"],
 "data": [
  ["COc1cc2c(Nc3ccc(NC(=O)c4ccccc4)cc3)ncnc2cc1OCCCN1CCOCC1", "yes"],
  ["CC(=O)Nc1ccc(-c2cc3ncnc(SCC(=O)O)c3s2)cc1", "yes"],
  ["Cn1ccc2ncnc(Oc3ccc(NC(=O)Nc4cncc(C(F)(F)F)c4)c(Cl)c3)c21", "yes"],
  ["CN1CCN(CCCNc2nccc(-c3c(-c4ccc(F)cc4)nn4cc(C(N)=O)ccc34)n2)CC1", "no"],
  ["COC(=O)Nc1nc2cc(Oc3ccc(NC(=O)Nc4cc(C(F)(F)F)ccc4Cl)cc3)ccc2[nH]1.Cl", "yes"],
  ["CC(=O)Nc1nc2cnc(Nc3cc(NC(=O)c4cccc(CC(C)(C)C#N)c4)ccc3C)nc2s1", "no"],
  ["CCCC(=O)Nc1n[nH]c2ncccc12", "yes"],
  ["COC(=O)c1cccc(NC(=O)NC2CCN(c3ccnc(Nc4cc(OC)c(OC)c(OC)c4)n3)C2)c1 (stereo not drawn)", "yes"],
  ["Cl.Cl.NC[C@H](CC1CCCCC1)NC(=O)c1ccc(-c2ccnc3[nH]ccc23)s1", "no"]
]}

---

Tested on: DDR2
setup conditions: concentration: 1 μM,replicates: in singlicate; n = 1
Listed below: %Inh values for each entry.
assay endpoint: %Inh (%)

{"columns": ["compound", "assay endpoint", "unit of measurement", "measurement"],
 "data": [
  ["Cn1cc(-c2cccc3c(N)c(C(N)=O)nnc23)cn1", "%Inh", "%", 0],
  ["Cc1cccc(-c2nc(Nc3ccncc3)c3sccc3n2)n1", "%Inh", "%", 66],
  ["OCCn1cc(-c2cnc3nnn(Cc4ccc5ncccc5c4)c3n2)cn1", "%Inh", "%", 4],
  ["CC(C)c1nc(-c2cccc(NS(=O)(=O)c3ccccc3)c2)c(-c2ccnc(Nc3ccc4c(c3)CN(C)CC4)n2)s1", "%Inh", "%", 42],
  ["Cn1ccc2ncnc(Oc3ccc(NC(=O)Nc4cc(C(C)(C)C)on4)c(Cl)c3)c21", "%Inh", "%", 99.4],
  ["COC(=O)c1cccc(NC(=O)NC2CCN(c3ccnc(NCc4ccc(F)cc4)n3)CC2)c1", "%Inh", "%", 0],
  ["CC(C(=O)NC1CCN(c2ccnc(Nc3ccc(F)cc3)n2)C1)c1ccc(Cl)cc1 (stereo not shown)", "%Inh", "%", 11]
]}

---

System: MAP4K4
setup conditions: concentration: 1 μM,replicates: in singlicate; n = 1
Outcome label depends on %Inh relative to 10%: at/above gives label 1, below gives label 0.

{"columns": ["compound", "classification"],
 "data": [
  ["C[C@@H]1CCN(C(=O)N2CCCC2)C[C@@H]1N(C)c1ncnc2[nH]ccc12", "label 0"],
  ["COc1cccc(CNC(=O)NC2CCN(c3ccnc(Nc4cc(OC)c(OC)c(OC)c4)n3)C2)c1 (stereo not shown) [GSK1379765]", "label 0"],
  ["Cl.Nc1n[nH]c2cc(-c3ccccn3)ccc12 [GSK2189892]", "label 0"],
  ["CC(C)S(=O)(=O)N1CCN(Cc2ccc3c(c2)nc(NC(=O)c2ccsc2)n3C[C@H](O)c2ccccc2)CC1 [GW635815]", "label 1"],
  ["COc1cccc(C2=C(Nc3cccc(Cl)c3)C(=O)NC2=O)c1 [SB-341556]", "label 1"],
  ["Nc1nccc(-c2ccc3c(N)n[nH]c3c2)n1 [GSK1034945]", "label 0"],
  ["Cc1ccn2nc(-c3ccc(F)cc3)c(-c3ccncc3)c2c1.Cl [GW457859]", "label 1"],
  ["O=C(Nc1cccc(Oc2ccc3nccn3n2)c1)Nc1cccc(C(F)(F)F)c1", "label 1"],
  ["Cn1ccc2ncnc(Oc3ccc(NC(=O)Nc4cccc(C(F)(F)F)c4)c(Cl)c3)c21", "label 1"],
  ["FC(F)(F)c1cc(Br)cc(Nc2nccc(-c3cnn4ncccc34)n2)c1 [GW810578]", "label 0"],
  ["CN(c1cccc(CNc2nc(Nc3ccc4c(c3)CC(=O)N4)ncc2C(F)(F)F)c1)S(C)(=O)=O", "label 1"],
  ["CS(=O)(=O)Nc1ccc(-c2ccnc3[nH]ccc23)cc1 [GSK993273]", "label 0"],
  ["Cl.c1ccc(Oc2ccc(Nc3ccnc4cc(-c5ccc(CN6CCNCC6)o5)ccc34)cc2)nc1 [GW567142]", "label 0"]
]}

---

Test system: EPHA7
setup conditions: concentration: 1 μM,replicates: in singlicate; n = 1
assay endpoint: %Inh (%)

{"columns": ["compound", "assay endpoint", "unit of measurement", "measurement"],
 "data": [
  ["Cn1ccc2ncnc(Oc3ccc(NC(=O)Nc4cncc(C(F)(F)F)c4)c(Cl)c3)c21", "%Inh", "%", 74],
  ["CN(c1cccc(CNc2nc(Nc3ccc4c(c3)CC(=O)N4)ncc2C(F)(F)F)c1)S(C)(=O)=O", "%Inh", "%", 33],
  ["O=C(NCC1CC1)c1ccc(-c2cc(C(=O)NC3CC3)ccc2F)cc1", "%Inh", "%", 0],
  ["Cc1cccc(-c2nc(Nc3ccncc3)c3sccc3n2)n1", "%Inh", "%", 6],
  ["COc1cc2ncn(-c3cc(OCC4CCCCC4)c(C(N)=O)s3)c2cc1OC", "%Inh", "%", 17],
  ["Cc1ccc(CC(=O)N2CCc3cc(-c4cn(C)c5ncnc(N)c45)ccc32)cc1", "%Inh", "%", 4],
  ["COc1cc2nccc(Nc3ccc(Oc4ccccc4)cc3)c2cc1OC.Cl", "%Inh", "%", 0],
  ["CS(=O)(=O)Nc1ccc(-c2ccnc3[nH]ccc23)cc1", "%Inh", "%", 13],
  ["CCn1c(-c2nonc2N)nc2cncc(CNC3CCNCC3)c21.Cl", "%Inh", "%", 9],
  ["COC(=O)c1cccc(NC(=O)NC2CCN(c3ccnc(Nc4cc(OC)c(OC)c(OC)c4)n3)C2)c1 (stereo not drawn)", "%Inh", "%", 4],
  ["Nc1nccc(-c2ccc3c(N)n[nH]c3c2)n1", "%Inh", "%", 6],
  ["Cn1ccc2ncnc(Oc3ccc(NC(=O)Nc4ccnc(C(F)(F)F)c4)c(Cl)c3)c21", "%Inh", "%", 6],
  ["CN(c1ccc2c(c1)nc(NCc1ccc(F)cc1)n2C)c1ccnc(Nc2ccc(CS(C)(=O)=O)cc2)n1.Cl", "%Inh", "%", 0],
  ["C[C@@H]1CCN(C(=O)N2CCCC2)C[C@@H]1N(C)c1ncnc2[nH]ccc12", "%Inh", "%", 0],
  ["Cc1ccc(C(=O)Nc2ccc(Oc3ccc4nc(NC(=O)C5CC5)cn4c3)c(F)c2)c(=O)n1-c1ccccc1", "%Inh", "%", 74],
  ["Cc1n[nH]c2cc(Nc3ccnc(Nc4cccc(CN5CCOCC5)c4)n3)ccc12", "%Inh", "%", 0],
  ["C[C@@H](Oc1cc(-n2cnc3cc(-c4cnn(C)c4)ccc32)sc1C(N)=O)c1ccccc1Cl", "%Inh", "%", 4],
  ["Cc1cccc2c(-c3ccncc3)c(-c3ccc(F)cc3)nn12.Cl", "%Inh", "%", 9]
]}
